Reference source for all entries: the supplement of paper PMC5412046

- Tested on: SB.mhdgc-1
- assayOverview: area under the dose-response curve of % viability (trapezoidal, 11 doses) (% viability x log10 concentration); higher = less cytotoxic
- experimentalSetup: SB.mhdgc-1 (hereditary c.1380delA CDH1 gastric cancer)
Counter-ions that a name gives are not always drawn.
Recorded area under the dose-response curve by entry
Number, no unit, nothing else.

Below, 2 molecules whose answers are already recorded.
molecule | targetEntity | area under the dose-response curve
Cc1cc2c(cc1C1(c3ccc(C(=O)O)cn3)CC1)C(C)(C)CCC2(C)C (top concentration 46.0829 µM) | SB.mhdgc-1 | 564
CCN(CC)C(=S)SSC(=S)N(CC)CC [Disulfiram] (top concentration 46.0829 µM) | SB.mhdgc-1 | 141

Recorded area under the dose-response curve (molecule O=C(O)C1(Cc2cccc(Nc3nccs3)n2)CCC(Oc2cccc(Cl)c2F)CC1 (stereo not given) [MK-5108] (top concentration 46.0829 µM) ): 355

Recorded area under the dose-response curve (molecule Clc1cccc(-n2nnnc2NCc2ccccc2Oc2ccccn2)c1Cl (top concentration 46.0829 µM) ): 537

Recorded area under the dose-response curve (molecule CCCN[S+](=O)([O-])Nc1ncnc(OCCOc2ncc(Br)cn2)c1-c1ccc(Br)cc1 [Macitentan] (top concentration 46.0829 µM) ): 577

Recorded area under the dose-response curve (molecule NC(=O)c1ncn([C@@H]2O[C@H](CO)[C@@H](O)[C@H]2O)n1 [Ribavirin] (top concentration 46.0829 µM) ): 656

Recorded area under the dose-response curve (molecule CCCCOCCOc1nc(-c2ccc(C(=O)O)c(F)c2)sc1C (top concentration 46.0829 µM) ): 473

Recorded area under the dose-response curve (molecule CCN(CC)CCCCNc1ncc2cc(-c3cc(OC)cc(OC)c3)c(NC(=O)NC(C)(C)C)nc2n1 (top concentration 46.0829 µM) ): 471

Recorded area under the dose-response curve (molecule Cc1nnc(N[S+](=O)([O-])c2ccc(N)cc2)s1 [Sulfamethizole] (top concentration 46.0829 µM) ): 394

Recorded area under the dose-response curve (molecule CN(C)c1ccc(O)c2c1C[C@H]1C[C@H]3[C@H](N(C)C)C(O)=C(C(N)=O)C(=O)[C@@]3(O)C(O)=C1C2=O [Minocycline] (top concentration 46.0829 µM) ): 450

Recorded area under the dose-response curve (molecule O=C(NCCCCN1CCOCC1)c1cc2ccccc2o1 (top concentration 46.0829 µM) ): 461

Recorded area under the dose-response curve (molecule C[C@H]1C[C@H]2[C@@H]3CC[C@](O)(C(=O)CO)[C@@]3(C)C[C@H](O)[C@@H]2[C@@]\4(C)/C=C\C(=O)\C=C14 [Methylprednisolone] (top concentration 46.0829 µM) ): 462

Recorded area under the dose-response curve (molecule COC1=CC=C2CN(C)CC[C@@]34\C=C/[C@H](O)C[C@@H]3OC1=C24 [Galantamine hydrobromide] (top concentration 46.0829 µM) ): 613

Recorded area under the dose-response curve (molecule COc1cccc2c1[C@]13CCN(CC4CC4)[C@H](C2)[C@]1(OC)CCC(=O)C3 [Cyprodime] (top concentration 46.0829 µM) ): 567

Recorded area under the dose-response curve (molecule NC(=O)c1cccc(-c2cc(Nc3ccc(OC(F)(F)F)cc3)ncn2)c1 [GNF 2] (top concentration 46.0829 µM) ): 537
